The measurements presented in this section are drawn from ChEMBL document CHEMBL1158398.

Tested Target: Aldo-keto reductase family 1 member C1 (Homo sapiens, UniProt Q04828)
Sequence (Q04828 whole entry): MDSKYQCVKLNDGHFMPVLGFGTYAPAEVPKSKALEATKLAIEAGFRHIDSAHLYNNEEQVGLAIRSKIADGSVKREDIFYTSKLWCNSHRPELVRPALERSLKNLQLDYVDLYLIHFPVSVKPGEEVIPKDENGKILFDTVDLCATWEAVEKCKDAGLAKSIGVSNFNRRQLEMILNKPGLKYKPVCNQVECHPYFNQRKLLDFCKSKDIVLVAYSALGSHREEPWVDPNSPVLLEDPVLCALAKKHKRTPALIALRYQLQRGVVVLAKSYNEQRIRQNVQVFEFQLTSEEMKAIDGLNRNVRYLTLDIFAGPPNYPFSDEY
Protocol: Inhibition of human recombinant GST-tagged AKR1C1 expressed in Escherichia coli BL21
Readout: pKi
// scale note: pKi = -log10(conc_M); give the bare number

Compound: O=C(O)C1CCC(c2ccccc2)C1 (centres undefined)
Readout: pKi
Reported Result: 4.31

Prompt: Give pKi for the following compound: O=C(O)C1(c2ccccc2)CCCC1
Response: 4.45

Prompt: Give pKi for the following compound: O=C1CCC/C1=C\c1ccc(Cl)cc1
Response: 4.76

Prompt: Give pKi for the following compound: CCOC1CCC/C1=C\c1ccc(Cl)cc1 (centres undefined)
Response: 4.52
